Data provenance: patent US9932327B2

- System: MIAPaCa-2 (pancreatic)
- Protocol Description: Cytotoxicity, MTT assay, MIAPaCa-2
- Type: cell-based
- Condition Parameters: Homo sapiens, MIA PaCa-2, read-out: Cell Growth Inhibition (%)
Measured Property: inhibition at 10 µM (%)

Compound	Measured Property	Endpoint Value
Cc1cc(=O)c2c(O)cc(OC/C=C/c3ccccc3)c(C3CCN(C)CC3O)c2o1 (stereo not shown)	inhibition at 10 µM	11.2
CN1CCC(c2c(O)cc(O)c3c(=O)cc(/C=C/c4ccccc4F)oc23)C(O)C1 (stereo not shown)	inhibition at 10 µM	21.3
Cc1cc(=O)c2c(O)cc(OC(=O)c3ccco3)c(C3CCN(C)CC3O)c2o1 (stereo not shown)	inhibition at 10 µM	16.1
Cc1oc2c(C3CCN(C)CC3O)c(O)cc(O)c2c(=O)c1C(O)c1ccc([N+](=O)[O-])cc1 (stereo not shown)	inhibition at 10 µM	2.48
Cc1oc2c(C3CCN(C)CC3O)c(O)cc(O)c2c(=O)c1C(O)c1ccccc1Br (stereo not shown)	inhibition at 10 µM	10.1
Cc1cc(=O)c2c(O)cc(OC(=O)c3ccccc3C)c(C3CCN(C)CC3O)c2o1 (stereo not shown)	inhibition at 10 µM	7.19
CN1CCC(c2c(O)cc(O)c3c(=O)cc(/C=C/c4cccc(Cl)c4)oc23)C(O)C1 (stereo not shown)	inhibition at 10 µM	40.3
Cc1cc(=O)c2c(O)cc(OCc3ccc(Br)cc3)c(C3CCN(C)CC3O)c2o1 (stereo not shown)	inhibition at 10 µM	13.2
COc1ccc(COc2cc(O)c3c(=O)cc(C)oc3c2C2CCN(C)CC2O)cc1 (stereo not shown)	inhibition at 10 µM	15.7
Cc1cc(=O)c2c(O)cc(OCc3cccs3)c(C3CCN(C)CC3O)c2o1 (stereo not shown)	inhibition at 10 µM	13.2
Cc1cc(=O)c2c(O)cc(OCc3ccc([N+](=O)[O-])cc3)c(C3CCN(C)CC3O)c2o1 (stereo not shown)	inhibition at 10 µM	12.4
Cc1cc(=O)c2c(O)cc(OCc3ccccc3)c(C3CCN(C)CC3O)c2o1 (stereo not shown)	inhibition at 10 µM	13.8
Cc1cc(=O)c2c(O)cc(OCc3ccco3)c(C3CCN(C)CC3O)c2o1 (stereo not shown)	inhibition at 10 µM	6.61
CN1CCC(c2c(O)cc(O)c3c(=O)cc(/C=C/c4c5ccccc5cc5ccccc45)oc23)C(O)C1 (stereo not shown)	inhibition at 10 µM	17
Cc1oc2c(C3CCN(C)CC3O)c(O)cc(O)c2c(=O)c1C(O)c1c(F)cccc1Cl (stereo not shown)	inhibition at 10 µM	8.58
Cc1oc2c(C3CCN(C)CC3O)c(O)cc(O)c2c(=O)c1C(O)c1cccc(Cl)c1 (stereo not shown)	inhibition at 10 µM	1.52
Cc1cc(=O)c2c(O)cc(O)c(C3CCN(C)CC3O)c2o1 (stereo not shown) [Compound 1, reference compound]	inhibition at 10 µM	1.46
Cc1cc(=O)c2c(O)cc(OCc3ccccc3Br)c(C3CCN(C)CC3O)c2o1 (stereo not shown)	inhibition at 10 µM	29.7
Cc1oc2c(C3CCN(C)CC3O)c(O)cc(O)c2c(=O)c1C(O)c1ccc(Cl)cc1 (stereo not shown)	inhibition at 10 µM	14.8

----------
- Test system: HL-60 (Leukemia)
- Protocol Description: Cytotoxicity, MTT assay, HL-60
- Format: cell-based
- Condition Parameters: Homo sapiens, 10 μM, read-out: Cell Growth Inhibition (%)

Molecule	Measure Unit	inhibition at 10 µM
Cc1cc(=O)c2c(O)cc(OCc3cccs3)c(C3CCN(C)CC3O)c2o1 (stereo not shown)	%	22.2
Cc1cc(=O)c2c(O)cc(OC(=O)c3ccco3)c(C3CCN(C)CC3O)c2o1 (stereo not shown)	%	80.2
CN1CCC(c2c(O)cc(O)c3c(=O)cc(/C=C/c4ccccc4F)oc23)C(O)C1 (stereo not shown)	%	80.5
Cc1oc2c(C3CCN(C)CC3O)c(O)cc(O)c2c(=O)c1C(O)c1ccc([N+](=O)[O-])cc1 (stereo not shown)	%	0
Cc1oc2c(C3CCN(C)CC3O)c(O)cc(O)c2c(=O)c1C(O)c1ccccc1Br (stereo not shown)	%	52
CN1CCC(c2c(O)cc(O)c3c(=O)cc(/C=C/c4cccc(Cl)c4)oc23)C(O)C1 (stereo not shown)	%	24.3
Cc1cc(=O)c2c(O)cc(OCc3ccccc3)c(C3CCN(C)CC3O)c2o1 (stereo not shown)	%	24.3
